test: AUC (0 to last) in C57BL/6 mouse at 50 mg/kg, po measured for 24 hrs by LC-MS/MS analysis; assay type: ADME, organism-based; details: in vivo
Measured metric: AUC(0-t) at 24 h (µg·h/mL)
Report only the number, with the unit µg·h/mL understood.

The reported value for CNC(=O)c1ccc(NCC#Cc2cc3c(N[C@@H]4CCN(C)C[C@@H]4F)cccc3n2CC(F)(F)F)c(OC)c1 in terms of AUC(0-t) at 24 h is 163

###

test system: Cellular tumor antigen p53 (Homo sapiens), P04637 [Y220C]; assay: Reactivation of N-terminal 6xHis-tagged recombinant p53 Y220C mutant (94 to 292 residues) (unknown origin) protein assessed as stabilization of Protein/DNA complex measuring substrate concentration required to increase DNA binding incubated for 48 mins by TR-FRET assay
Threshold-based label: EC1.5 under 0.05 µM gives fulfilled, EC1.5 not under 0.05 µM gives not fulfilled.

Examples from the recorded data:
| Molecule smiles | Label |
| --- | --- |
| CCN(CC)C1CCN(Cc2cc(C#CCNc3ccccc3)cc(I)c2O)CC1 | not fulfilled |
| CN1CCC(Nc2cccc3c2cc(C#CCNc2ccc(C(C)(C)C#N)nc2)n3CC(F)(F)F)CC1 | not fulfilled |
| CNC(=O)c1ccc(NCC#Cc2cc3c(N[C@@H]4CCN(C)C[C@@H]4F)cccc3n2CC(F)(F)F)c(OC)c1 | fulfilled |
| CCn1c(C#CCNc2ccccc2)cc2cc(CNC)ccc21 | not fulfilled |

Now for another entry.
stdin: Answer whether the compound CCn1c2ccccc2c2cc(CNC)ccc21 has EC1.5 strictly less than 0.05 µM
stdout: not fulfilled
